Target: Muscarinic acetylcholine receptor M2 (Homo sapiens, UniProt P08172)
Sequence (P08172 whole entry): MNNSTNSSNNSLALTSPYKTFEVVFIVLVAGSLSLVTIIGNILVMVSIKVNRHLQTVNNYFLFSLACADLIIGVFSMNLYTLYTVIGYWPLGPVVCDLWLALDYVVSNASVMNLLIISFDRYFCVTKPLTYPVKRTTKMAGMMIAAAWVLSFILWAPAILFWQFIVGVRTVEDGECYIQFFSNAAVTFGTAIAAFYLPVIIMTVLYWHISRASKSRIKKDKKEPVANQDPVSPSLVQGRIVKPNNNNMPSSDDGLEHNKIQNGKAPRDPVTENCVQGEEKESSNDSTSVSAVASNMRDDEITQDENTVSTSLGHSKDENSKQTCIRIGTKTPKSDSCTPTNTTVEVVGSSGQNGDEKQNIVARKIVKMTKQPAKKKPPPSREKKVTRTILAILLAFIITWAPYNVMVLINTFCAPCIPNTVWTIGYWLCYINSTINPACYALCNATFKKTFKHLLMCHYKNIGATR
Test: Positive allosteric modulation of human M2 receptor/Gqi5 in presence of EC20 acetylcholine by calcium mobilization assay relative to acetylcholine
Settings: read-out: %max
Emax below 40% gives Not fulfilled; Emax at or above it gives Fulfilled.

Request: Is the recorded value of Emax equal to or greater than 40% for this compound? `Cc1c(Cl)nnc2sc(C(=O)NC3CN(c4nnc(CC(C)C)o4)C3)c(N)c12`
Result: Fulfilled

Request: Is the recorded value of Emax equal to or greater than 40% for this compound? `Cc1cc(C2CC2)ncc1N1CC(NC(=O)c2sc3nnc(Cl)c(C)c3c2N)C1`
Result: Not fulfilled

Request: Is the recorded value of Emax equal to or greater than 40% for this compound? `Cc1c(Cl)nnc2sc(C(=O)NC3CN(c4ccc(C5CC5)nn4)C3)c(N)c12`
Result: Fulfilled

Request: Is the recorded value of Emax equal to or greater than 40% for this compound? `Cc1c(Cl)nnc2sc(C(=O)NC3CN(c4cccnc4)C3)c(N)c12`
Result: Fulfilled

Request: Is the recorded value of Emax equal to or greater than 40% for this compound? `Cc1c(Cl)nnc2sc(C(=O)NC3CN(c4cc(C(F)(F)F)ncc4Cl)C3)c(N)c12`
Result: Fulfilled

Request: Is the recorded value of Emax equal to or greater than 40% for this compound? `Cc1nnc2sc(C(=O)NC3CN(c4ncc(C(F)(F)F)cn4)C3)c(N)c2c1C`
Result: Not fulfilled

* * *

Test: Fraction unbound in human plasma
Format: ADME, cell-free
API: label(entry) gives true (1) if the entry's fraction unbound is strictly smaller than 0.02; on equality or larger values it gives false (0).

Request: Regarding `Cc1c(CF)nnc2sc(C(=O)NC3CN(c4ncc(C(F)(F)F)cn4)C3)c(N)c12` , kindly confirm whether its fraction unbound is beneath 0.02.
Result: false (0)

Request: Regarding `Cc1c(Cl)nnc2sc(C(=O)NC3CN(c4ncc(C(F)(F)F)cn4)C3)c(N)c12` , kindly confirm whether its fraction unbound is beneath 0.02.
Result: false (0)

Request: Regarding `COc1cc(N2CC(NC(=O)c3sc4nnc(Cl)c(C)c4c3N)C2)c(Cl)cn1` , kindly confirm whether its fraction unbound is beneath 0.02.
Result: true (1)

Request: Regarding `Cc1c(Cl)nnc2sc(C(=O)NC3CN(c4cc(C(F)(F)F)ncc4Cl)C3)c(N)c12` , kindly confirm whether its fraction unbound is beneath 0.02.
Result: true (1)

Request: Regarding `Cc1nnc2sc(C(=O)NC3CN(c4ncc(C(F)(F)F)cn4)C3)c(N)c2c1C` , kindly confirm whether its fraction unbound is beneath 0.02.
Result: false (0)

* * *

Experiment: Positive allosteric modulation of dog M4 receptor
Parameters: species or system Canis lupus familiaris
Measure: pEC50
Please treat pEC50 as minus the base-10 logarithm of the molar concentration.

Request: I have this compound here, `COc1nnc2sc(C(=O)NC3CN(c4ncc(C(F)(F)F)cn4)C3)c(N)c2c1C` , and I need its recorded pEC50.
Result: 7.06

* * *

Molecular target: UniProt:P08173
Assay: Positive allosteric modulation of human M4 receptor/Gqi5 in presence of EC20 acetylcholine by calcium mobilization assay relative to acetylcholine
Assay type: functional
Settings: filed as positive allosteric modulator
%max below 80% gives 0.0; %max at or above it gives 1.0.

Request: Is the recorded value of %max equal to or greater than 80% for this compound? `CCc1nnc2sc(C(=O)NC3CN(c4ncc(C(F)(F)F)cn4)C3)c(N)c2c1C`
Result: 0.0

Request: Is the recorded value of %max equal to or greater than 80% for this compound? `Cc1c(O)nnc2sc(C(=O)NC3Cc4ccccc4C3)c(N)c12`
Result: 0.0

Request: Is the recorded value of %max equal to or greater than 80% for this compound? `COc1nnc2sc(C(=O)NC3CN(c4ncc(C(F)(F)F)cn4)C3)c(N)c2c1C`
Result: 0.0

Request: Is the recorded value of %max equal to or greater than 80% for this compound? `Cc1cc(C2CC2)ncc1N1CC(NC(=O)c2sc3nnc(Cl)c(C)c3c2N)C1`
Result: 1.0

Request: Is the recorded value of %max equal to or greater than 80% for this compound? `Cc1c(Cl)nnc2sc(C(=O)NC3Cc4ccccc4C3)c(N)c12`
Result: 0.0

Request: Is the recorded value of %max equal to or greater than 80% for this compound? `Cc1c(C(C)C)nnc2sc(C(=O)NC3CN(c4ncc(C(F)(F)F)cn4)C3)c(N)c12`
Result: 0.0

Request: Is the recorded value of %max equal to or greater than 80% for this compound? `Cc1nnc2sc(C(=O)NC3CN(c4ncc(C(F)(F)F)cn4)C3)c(N)c2c1C`
Result: 0.0

Request: Is the recorded value of %max equal to or greater than 80% for this compound? `Cc1c(Cl)nnc2sc(C(=O)NC3CN(c4ccc(C5CC5)nn4)C3)c(N)c12`
Result: 1.0

Request: Is the recorded value of %max equal to or greater than 80% for this compound? `Cc1c(Cl)nnc2sc(C(=O)NC3CN(c4cccnc4)C3)c(N)c12`
Result: 1.0

Request: Is the recorded value of %max equal to or greater than 80% for this compound? `Cc1c(CO)nnc2sc(C(=O)NC3CN(c4ncc(C(F)(F)F)cn4)C3)c(N)c12`
Result: 0.0

Request: Is the recorded value of %max equal to or greater than 80% for this compound? `Cc1nc(Cl)c(C)c(N2CC(NC(=O)c3sc4nnc(Cl)c(C)c4c3N)C2)n1`
Result: 1.0

Request: Is the recorded value of %max equal to or greater than 80% for this compound? `Cc1c(Cl)nnc2sc(C(=O)NC3CN(c4cc(C(F)(F)F)ncc4Cl)C3)c(N)c12`
Result: 1.0

Request: Is the recorded value of %max equal to or greater than 80% for this compound? `Cc1c(C(F)F)nnc2sc(C(=O)NC3CN(c4ncc(C(F)(F)F)cn4)C3)c(N)c12`
Result: 0.0

Request: Is the recorded value of %max equal to or greater than 80% for this compound? `COCCOc1nnc2sc(C(=O)NC3CN(c4ncc(C(F)(F)F)cn4)C3)c(N)c2c1C`
Result: 0.0

Request: Is the recorded value of %max equal to or greater than 80% for this compound? `Cc1c(Cl)nnc2sc(C(=O)NC3CN(c4ccnc(F)c4Cl)C3)c(N)c12`
Result: 0.0

Request: Is the recorded value of %max equal to or greater than 80% for this compound? `Cc1c(Cl)nnc2sc(C(=O)NC3CN(c4ncncc4C#N)C3)c(N)c12`
Result: 0.0

Request: Is the recorded value of %max equal to or greater than 80% for this compound? `COc1cc(N2CC(NC(=O)c3sc4nnc(Cl)c(C)c4c3N)C2)c(Cl)cn1`
Result: 0.0

* * *

Target: UniProt:P11229
Sequence (P11229 whole entry): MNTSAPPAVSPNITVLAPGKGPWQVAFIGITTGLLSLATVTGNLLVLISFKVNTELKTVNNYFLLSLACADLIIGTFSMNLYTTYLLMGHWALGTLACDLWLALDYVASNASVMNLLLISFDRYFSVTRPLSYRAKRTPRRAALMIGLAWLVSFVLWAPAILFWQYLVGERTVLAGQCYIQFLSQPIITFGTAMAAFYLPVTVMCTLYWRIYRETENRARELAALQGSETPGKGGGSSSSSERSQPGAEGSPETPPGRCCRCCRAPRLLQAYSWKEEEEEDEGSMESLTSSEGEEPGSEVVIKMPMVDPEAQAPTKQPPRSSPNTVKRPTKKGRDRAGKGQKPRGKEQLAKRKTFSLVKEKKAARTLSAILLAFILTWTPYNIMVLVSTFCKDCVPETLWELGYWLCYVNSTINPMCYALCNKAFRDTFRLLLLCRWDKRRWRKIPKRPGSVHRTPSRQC
Assay: Positive allosteric modulation of human M1 receptor
Measure: EC50

Request: I have this molecule here, `COc1nnc2sc(C(=O)NC3CN(c4ncc(C(F)(F)F)cn4)C3)c(N)c2c1C` , and I need its recorded EC50.
Result: > 30 µM

* * *

Target: UniProtKB P11712
Sequence (P11712 whole entry): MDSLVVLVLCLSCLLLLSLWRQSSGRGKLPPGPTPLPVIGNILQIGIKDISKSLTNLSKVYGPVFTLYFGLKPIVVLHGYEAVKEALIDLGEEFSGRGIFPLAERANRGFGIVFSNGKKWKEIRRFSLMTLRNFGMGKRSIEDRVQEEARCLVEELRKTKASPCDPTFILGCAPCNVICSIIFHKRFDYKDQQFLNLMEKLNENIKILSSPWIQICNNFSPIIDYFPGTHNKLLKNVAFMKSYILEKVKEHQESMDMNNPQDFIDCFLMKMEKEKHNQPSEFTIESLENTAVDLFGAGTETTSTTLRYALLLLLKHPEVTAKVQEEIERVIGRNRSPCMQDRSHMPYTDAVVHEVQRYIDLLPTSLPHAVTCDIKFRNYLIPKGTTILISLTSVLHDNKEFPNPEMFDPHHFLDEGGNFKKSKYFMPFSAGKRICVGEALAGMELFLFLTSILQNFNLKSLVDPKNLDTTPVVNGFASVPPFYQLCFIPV
Measure: IC50

Request: I have this molecule here, `COc1nnc2sc(C(=O)NC3CN(c4ncc(C(F)(F)F)cn4)C3)c(N)c2c1C` , and I need its recorded IC50.
Result: > 30 µM

* * *

Molecular target: Muscarinic acetylcholine receptor M4 (Homo sapiens)
Sequence (P08173 whole entry): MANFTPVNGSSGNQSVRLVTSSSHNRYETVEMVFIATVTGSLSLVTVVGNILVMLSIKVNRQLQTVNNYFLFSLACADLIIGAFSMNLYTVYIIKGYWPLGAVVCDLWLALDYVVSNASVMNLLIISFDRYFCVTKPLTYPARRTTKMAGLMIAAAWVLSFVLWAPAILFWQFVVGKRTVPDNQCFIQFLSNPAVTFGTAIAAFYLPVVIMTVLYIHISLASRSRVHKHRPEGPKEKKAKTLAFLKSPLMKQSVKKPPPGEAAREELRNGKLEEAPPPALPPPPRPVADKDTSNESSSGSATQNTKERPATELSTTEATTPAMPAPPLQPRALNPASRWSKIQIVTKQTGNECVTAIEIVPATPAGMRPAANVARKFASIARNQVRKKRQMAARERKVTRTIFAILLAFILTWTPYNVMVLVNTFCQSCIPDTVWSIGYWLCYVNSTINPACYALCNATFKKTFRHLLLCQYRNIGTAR
Assay: Positive allosteric modulation of human M4 receptor/Gqi5 in presence of EC20 acetylcholine by calcium mobilization assay
API: label(entry) gives True if the entry's EC50 is strictly smaller than 0.07 µM; on equality or larger values it gives False.

Request: Regarding `Cc1c(C(C)C)nnc2sc(C(=O)NC3CN(c4ncc(C(F)(F)F)cn4)C3)c(N)c12` , kindly confirm whether its EC50 is beneath 0.07 µM.
Result: False

Request: Regarding `Cc1c(Cl)nnc2sc(C(=O)NC3CN(c4cc(C(F)(F)F)ncc4Cl)C3)c(N)c12` , kindly confirm whether its EC50 is beneath 0.07 µM.
Result: True

Request: Regarding `Cc1cnnc2sc(C(=O)NC3Cc4ccccc4C3)c(N)c12` , kindly confirm whether its EC50 is beneath 0.07 µM.
Result: True

Request: Regarding `Cc1cc(C2CC2)ncc1N1CC(NC(=O)c2sc3nnc(Cl)c(C)c3c2N)C1` , kindly confirm whether its EC50 is beneath 0.07 µM.
Result: False

Request: Regarding `COc1cc(N2CC(NC(=O)c3sc4nnc(Cl)c(C)c4c3N)C2)c(Cl)cn1` , kindly confirm whether its EC50 is beneath 0.07 µM.
Result: True

Request: Regarding `Cc1c(Cl)nnc2sc(C(=O)NC3CN(c4nnc(CC(C)C)o4)C3)c(N)c12` , kindly confirm whether its EC50 is beneath 0.07 µM.
Result: False

* * *

Assay: Unbound brain-to-plasma concentration ratio in Sprague-Dawley rat at 0.1 to 0.2 mg/kg, iv measured after 1.5 hrs
Format: ADME, organism-based
Conditions: dose 0.1-0.2 mg/kg, read-out: K(p,uu,brain)
Measure: Kp uu at 1.5 h
Form rule: numeric answer, no unit written next to it.

Request: I have this compound here, `COc1nnc2sc(C(=O)NC3CN(c4ncc(C(F)(F)F)cn4)C3)c(N)c2c1C` , and I need its recorded Kp uu at 1.5 h.
Result: 0.35
